Record type: pIC50 measurement. Applies to: Serine/threonine-protein kinase B-raf (Homo sapiens, UniProt P15056, V600E)
Give bare numbers, as −log10 of the molar value.

Below, each entry is followed by its recorded pIC50 result.
1) CCCS(=O)(=O)Nc1ccc(F)c(C(=O)Nc2cnc3cc(NC(C)C)nn3c2)c1F; 6.72
2) CCCS(=O)(=O)Nc1ccc(F)c(C(=O)Nc2cnc3cc(C4CCCC4)nn3c2)c1F; 6.89
3) CCCS(=O)(=O)Nc1ccc(F)c(C(=O)Nc2cnc3cc(C)nn3c2)c1F; 6.88

Each of the following entries comes with a recorded value; kindly state pIC50 for each.
1. CCCS(=O)(=O)Nc1ccc(F)c(C(=O)Nc2cnc3cc(OCC)nn3c2)c1F
2. CCCS(=O)(=O)Nc1ccc(F)c(C(=O)Nc2cnc3cc(-c4cnn(C)c4)nn3c2)c1F
3. CCCS(=O)(=O)Nc1ccc(F)c(C(=O)Nc2cnc3cc(OC(C)C)nn3c2)c1F
4. CCCS(=O)(=O)Nc1ccc(F)c(C(=O)Nc2cnc3ccccc3c2)c1F
5. CCCS(=O)(=O)Nc1ccc(F)c(C(=O)Nc2cnc3cc(OCCOC)nn3c2)c1F
6. CCCS(=O)(=O)Nc1ccc(F)c(C(=O)Nc2cnc3ccnn3c2)c1F
7. CCCS(=O)(=O)Nc1ccc(F)c(C(=O)Nc2cnc3cc(N4CCOCC4)nn3c2)c1F

[7.08, 7.89, 6.83, 6.33, 7.17, 6.61, 6.76]

====

- Assay overview: AUC in mouse at 30 mg/kg, po administered with 1% methylcellulose/0.5% Tween 80 in water
- Assay type: ADME, organism-based
- Set-up: dose 30 mg/kg, route oral
- Reported conditions: in vivo
Attribute measured: AUC

1) CCCS(=O)(=O)Nc1ccc(F)c(C(=O)Nc2cnc3cc(OC)nn3c2)c1F; 844 µM·h

Next up:
Look up AUC for this molecule: "CCCS(=O)(=O)Nc1ccc(F)c(C(=O)Nc2cnc3[nH]nc(OC)c3c2)c1F"
105 µM·h

====

- Assay overview: Volume of distribution in mouse at […], iv and 30 mg/kg, po
- Assay type: ADME, organism-based
- Reported conditions: in vivo
Kindly state Vd for each of the entries shown.
Respond with a number, then the unit of measure.

1. CCCS(=O)(=O)Nc1ccc(F)c(C(=O)Nc2cnc3cc(OC)nn3c2)c1F; 0.16 L/kg

Next up:
Look up Vd for this compound: "CCCS(=O)(=O)Nc1ccc(F)c(C(=O)Nc2cnc3[nH]nc(OC)c3c2)c1F"
0.11 L/kg
